All figures here come from patent US20200079758A1.

target: recombinant human AKR1C3 (Homo sapiens, UniProt P42330); construct: GST (cleaved yes); assay: AKR1C3-inhibitory activity assay (generation of Coumberol from Coumberone); settings: Coumberone 0.3 μM, NADPH 10 μM, 22° C., typically 90 min, average or median values
Sequence (P42330 whole entry): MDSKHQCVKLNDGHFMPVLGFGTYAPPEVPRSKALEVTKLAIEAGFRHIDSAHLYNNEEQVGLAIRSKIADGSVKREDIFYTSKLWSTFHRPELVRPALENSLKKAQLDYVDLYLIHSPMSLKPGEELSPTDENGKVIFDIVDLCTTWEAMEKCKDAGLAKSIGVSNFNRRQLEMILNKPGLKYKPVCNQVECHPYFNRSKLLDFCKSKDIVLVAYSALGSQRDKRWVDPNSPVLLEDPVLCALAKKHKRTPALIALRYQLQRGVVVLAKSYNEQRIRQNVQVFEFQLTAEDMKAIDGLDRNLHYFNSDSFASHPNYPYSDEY
Exam item: assign YES to entries whose IC50 is below 7 nM and NO to entries at or above 7 nM. Note that a value of exactly 7 nM receives NO.

* CC1(C)CN(C(=O)c2c[nH]nn2)CCN1S(=O)(=O)c1cccc(F)c1 | NO
* C[C@@H]1CN(C(=O)c2cnn[nH]2)[C@@H](C)CN1S(=O)(=O)c1ccc(OC(F)(F)F)cc1 | NO
* CC1(C)CN(C(=O)c2c[nH]nn2)CCN1S(=O)(=O)c1cc(Cl)cc(Cl)c1 | YES
* CC1(C)CN(C(=O)c2cnn[nH]2)CCN1S(=O)(=O)c1ccc2nsnc2c1 | NO
* CC1(C)CN(C(=O)c2cnn[nH]2)CCN1S(=O)(=O)c1cc(F)ccc1F | NO
* CC1(C)CN(C(=O)c2c[nH]nn2)CCN1S(=O)(=O)c1cccc(Cl)c1 | YES
* CC1(C)CN(C(=O)c2cnn[nH]2)CCN1S(=O)(=O)c1ccc2c(c1)OCO2 | NO
* C[C@@H]1CN(S(=O)(=O)c2c(F)cccc2F)C[C@H](C)N1C(=O)c1c[nH]nn1 | NO
* CC1(C)CN(C(=O)c2c[nH]nn2)CCN1S(=O)(=O)c1cccc(Br)c1 | YES
* C[C@@H]1CN(S(=O)(=O)c2ccccc2C(F)(F)F)C[C@H](C)N1C(=O)c1c[nH]nn1 | YES
* C[C@@H]1CN(C(=O)c2cnn[nH]2)[C@@H](C)CN1S(=O)(=O)c1cccc(C#N)c1 | YES
* CC1(C)CN(C(=O)c2cnn[nH]2)CCN1S(=O)(=O)c1cc(Cl)ccc1F | YES
* C[C@@H]1CN(C(=O)c2cnn[nH]2)[C@@H](C)CN1S(=O)(=O)c1cccc(F)c1 | YES
* CC1(C)CN(C(=O)c2cnn[nH]2)CCN1S(=O)(=O)c1ccccc1F | NO
* C[C@@H]1CN(S(=O)(=O)c2cccc(OC(F)(F)F)c2)C[C@H](C)N1C(=O)c1cnn[nH]1 | NO
* CC(=O)Nc1cccc(S(=O)(=O)N2C[C@H](C)N(C(=O)c3cnn[nH]3)C[C@H]2C)c1 | NO
